- ASSAY PROTOCOL: VP16 counterscreen qHTS for inhibitors of ROR gamma transcriptional activity; further: potency means the concentration at half of the fitted maximal effect
- EXPERIMENTAL PARAMETERS: Drosophila S2 Gal4-VP16 UAS-luciferase, luminescence, 20 h; series mostly up to 53.6 µM
In all, about 310,000 compounds went through this assay and about 11,000 (3.5%) were called active. About 8% were inconclusive and are not listed. The sample as a whole holds a higher share of actives than the screen did.
READOUT TYPE: Potency

[
  {
    "COMPOUND": "NC(=O)Cc1ccc2c(c1)[nH]c1ccccc12",
    "RESULT": "inactive"
  },
  {
    "COMPOUND": "C=C1/C(=C\\C=C2\\CCCC3(C)C2CCC3C(C)/C=C/C(O)C2CC2)CC(O)CC1O (stereo unspecified)",
    "RESULT": "12.6 µM (active)"
  },
  {
    "COMPOUND": "O=C(O)c1ccccc1C(=O)Nc1nc(-c2ccccc2)cs1",
    "RESULT": "inactive"
  },
  {
    "COMPOUND": "COc1ccc(CNC(=O)c2cc(=O)c3c(C)cc(C)cc3o2)cc1",
    "RESULT": "inactive"
  },
  {
    "COMPOUND": "CCN1C(=S)N[C@@H](c2cccc(C(F)(F)F)c2)C(C(=O)OC)=C1C",
    "RESULT": "inactive"
  }
]

Prompt line: Using the record for COc1ccc(N2CCN(S(=O)(=O)c3ccc4c(c3)NC(=O)C(C)C(=O)N4)CC2)cc1 (stereo unspecified) , state its measured Potency.
Response line: inactive

Prompt line: Consider the compound Cc1ccc(S(=O)(=O)N(C)CC(=O)NCCc2c[nH]c3ccccc23)cc1 . State its measured Potency.
Response line: inactive

Prompt line: Identify Potency associated with the compound O=C(COc1ccc(Cl)cc1)NCCS(=O)(=O)N1CCN(c2ccc(F)cc2)CC1
Response line: inactive

Prompt line: Output measured Potency for this item: O=C(Nc1nc(-c2ccc(-c3ccccc3)cc2)cs1)c1cnccn1
Response line: 2 µM (active)

Prompt line: Recall and state the measured Potency for Cc1ccc(C(=O)c2coc3ccc(O)c(CN(C)C)c23)cc1 .
Response line: inactive

Prompt line: State its Potency for this compound: COc1ccc2cc(S(=O)(=O)Nc3ccccn3)ccc2c1
Response line: inactive

----------
- ASSAY PROTOCOL: VP16 counterscreen qHTS for inhibitors of ROR gamma transcriptional activity;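 further: Gal4-VP16 expression switched on by copper sulfate through the metallothionein promoter; nearly all actives have a fitted effect of over 50% in size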
- EXPERIMENTAL PARAMETERS: Drosophila S2 Gal4-VP16 UAS-luciferase, luminescence, 20 h; series mostly up to 53.6 µM
The whole screen tested about 310,000 compounds, of which about 11,000 (3.5%) were called active. Roughly 8% stayed inconclusive and do not appear here. Calls come from the whole dose curve; as a rule, active = well fitted inhibition curve with a large enough effect; inconclusive = small, poorly fitted or top-dose-only effect, or effect the other way; inactive = flat fitted curve, though single readings scatter. The full list was thinned out, with actives kept by preference.
Select the matching outcome among t = active, f = inactive

Examples from the recorded data:
[
  {
    "MOLECULE": "O=c1[nH]c(/C=C\\c2cccc(C(F)(F)F)c2)nc(O)c1[N+](=O)[O-]",
    "DISCRETE LABEL": "f"
  },
  {
    "MOLECULE": "Cc1cccc(/C(N)=N/OC(=O)c2ccccc2Cl)c1",
    "DISCRETE LABEL": "t"
  },
  {
    "MOLECULE": "Cc1ccc(OCc2cc(C(=O)N(C)CCc3ccccc3)no2)cc1C",
    "DISCRETE LABEL": "f"
  },
  {
    "MOLECULE": "Cc1ccc(NC(=O)Nc2cccnc2)cc1",
    "DISCRETE LABEL": "f"
  }
]

Prompt line: Could you please tell me the result logged for CN(Cc1cccnc1)C(=O)c1cc(COc2ccc3ncccc3c2)on1 in this assay?
Response line: t

Prompt line: Hello, I am checking results. What call was entered for Cc1nn(-c2ccccc2)c2c1c(C)c(CCC(=O)NCC1CCCO1)c(=O)n2C (stereo unspecified) ?
Response line: f

----------
- ASSAY PROTOCOL: VP16 counterscreen qHTS for inhibitors of ROR gamma transcriptional activity;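 further: Gal4-VP16 expression switched on by copper sulfate through the metallothionein promoter; nearly all actives have a fitted effect of over 50% in size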
- EXPERIMENTAL PARAMETERS: Drosophila S2 Gal4-VP16 UAS-luciferase, luminescence, 20 h; series mostly up to 53.6 µM
Out of some 310,000 compounds screened, about 11,000 (3.5%) were called active. Roughly 8% stayed inconclusive and do not appear here. Calls come from the whole dose curve; as a rule, active = well fitted inhibition curve with a large enough effect; inconclusive = small, poorly fitted or top-dose-only effect, or effect the other way; inactive = flat fitted curve, though single readings scatter. The sample as a whole holds a higher share of actives than the screen did.
Hi! Could you answer with just one of these? active, inactive

[
  {
    "MOLECULE": "C=CCn1c(-c2ccc3[nH]c(C)c(C)c3c2)n[nH]c1=S",
    "DISCRETE LABEL": "active"
  },
  {
    "MOLECULE": "Cc1cc(SCC(=O)c2ccccc2)nc(SCC(=O)c2ccccc2)n1",
    "DISCRETE LABEL": "inactive"
  },
  {
    "MOLECULE": "CC(C)[C@H](NC(=O)N1CCn2c1nc1ccccc12)C(=O)NCc1ccc2c(c1)OCO2",
    "DISCRETE LABEL": "inactive"
  }
]

Prompt line: Which result was noted for this molecule in the test: O=C(NCCc1ccc(Cl)cc1Cl)c1cc([N+](=O)[O-])c[nH]c1=O
Response line: inactive

Prompt line: Fill in: this test's call for COc1cc(SC)ccc1C(=O)NCCOc1ccccc1Cl is ___
Response line: inactive

----------
- ASSAY PROTOCOL: VP16 counterscreen qHTS for inhibitors of ROR gamma transcriptional activity;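 further: Gal4-VP16 expression switched on by copper sulfate through the metallothionein promoter; nearly all actives have a fitted effect of over 50% in size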
- EXPERIMENTAL PARAMETERS: Drosophila S2 Gal4-VP16 UAS-luciferase, luminescence, 20 h; series mostly up to 53.6 µM
In all, about 310,000 compounds went through this assay and about 11,000 (3.5%) were called active. Not shown: some 8% with an inconclusive outcome. Calls follow the shape of the dose curve; as a rule, active = well fitted inhibition curve with a large enough effect; inconclusive = small, poorly fitted or top-dose-only effect, or effect the other way; inactive = flat fitted curve, though single readings scatter. What follows is part of a selection rich in actives, with near analogues and random picks from the rest.
Give your call using only these classes: TRUE for active, FALSE for inactive

[
  {
    "COMPOUND": "Cc1ccc(C(=O)COC(=O)CCN2C(=O)C3C4CCC(C4)C3C2=O)cc1C (stereo not given)",
    "DISCRETE LABEL": "FALSE"
  },
  {
    "COMPOUND": "N#CC1(NC(=O)COC(=O)CCN=C2NS(=O)(=O)c3ccccc32)CCCCC1",
    "DISCRETE LABEL": "FALSE"
  },
  {
    "COMPOUND": "CN(C)c1ccc(-c2nnc(-c3cccnc3)o2)cc1",
    "DISCRETE LABEL": "FALSE"
  },
  {
    "COMPOUND": "CCOc1ccc(S(=O)(=O)N2CCC(C(=O)NCc3ccccn3)CC2)cc1Cl",
    "DISCRETE LABEL": "FALSE"
  },
  {
    "COMPOUND": "Cc1nc2ccccc2c(=O)n1NC(=O)c1ccccc1",
    "DISCRETE LABEL": "FALSE"
  }
]

Prompt line: So what was the verdict on CCOC(=O)C1=C(c2ccc(OC)cc2)C(=O)c2ccccc2C1=O in this test?
Response line: TRUE

Prompt line: So what was the verdict on CCCCC(C(=O)OCC(=O)c1ccc(OC)cc1)N1C(=O)c2ccccc2C1=O (stereo not given) in this test?
Response line: FALSE

Prompt line: Any idea what this test logged for Cc1ccnc(-n2sc3ccccc3c2=O)n1 ?
Response line: TRUE

Prompt line: Record lookup: outcome of this test for CC(=O)Oc1ccc(-c2cccc(C(=O)N3CCCCC3)c2)cc1 ?
Response line: FALSE

Prompt line: What outcome does the record of this test show for CCc1ccc2c(c1)C1(NN=C(c3ccccc3)S1)C(=O)N2 (stereo not given) ?
Response line: TRUE

----------
- ASSAY PROTOCOL: VP16 counterscreen qHTS for inhibitors of ROR gamma transcriptional activity;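 further: Gal4-VP16 expression switched on by copper sulfate through the metallothionein promoter; nearly all actives have a fitted effect of over 50% in size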
- EXPERIMENTAL PARAMETERS: Drosophila S2 Gal4-VP16 UAS-luciferase, luminescence, 20 h; series mostly up to 53.6 µM
Hit rate of the full screen: of about 310,000 compounds, about 11,000 (3.5%) were called active. Roughly 8% stayed inconclusive and do not appear here. Calls come from the whole dose curve; as a rule, active = well fitted inhibition curve with a large enough effect; inconclusive = small, poorly fitted or top-dose-only effect, or effect the other way; inactive = flat fitted curve, though single readings scatter. This is one part of a sample in which actives are shown more often than they occur.
// allowed return values: active, inactive

Below are worked cases with known answers.
[
  {
    "MOLECULE": "Cc1nnc(SCC(N)=O)n1CC1CCCO1 (centres undefined)",
    "DISCRETE LABEL": "inactive"
  },
  {
    "MOLECULE": "COc1ccc(NC(=O)CSc2nc(SC)ns2)c(OC)c1",
    "DISCRETE LABEL": "inactive"
  },
  {
    "MOLECULE": "CN(c1ccccc1)S(=O)(=O)c1cc(C(=O)Nc2nc3ccccc3[nH]2)ccc1Cl",
    "DISCRETE LABEL": "active"
  }
]

Next item in the queue.
Prompt line: What is the recorded call for this molecule in the test? CN(C(=O)c1ccccc1)c1nccnc1C#N
Response line: inactive
